target: androgen receptor (Homo sapiens, UniProt P10275, T878A); construct: LNCaP cells that only express AR and respond solely to DHT; endogenous in cells; host or cells: LNCaP; LNCaP-GR; assay: AR (ARE) luciferase reporter assay, LNCaP cells (no ligand or DHT); type: cell-based; conditions: IC50 for ARE-luciferase reporter
pIC50: −log10 of the molar value.
measurement.label: pIC50

Qu. Can you share its pIC50? I mean this compound: `COc1ccc(C[C@H]2C(=O)N[C@@H](C)C(=O)N(C)[C@H]3Cc4ccc(cc4)Oc4cc(ccc4O)C[C@@H](C(=O)N[C@H](C)C(=O)N[C@@H](CCC(=O)O)C(=O)N2C)N(C)C3=O)cc1`
Ans. < 6.60

---

Target: androgen receptor (Homo sapiens, UniProt P10275, T878A)
Construct: LNCaP cells that only express AR and respond solely to DHT; endogenous in cells; host or cells: LNCaP; LNCaP-GR
Sequence (P10275 1-920 T878A): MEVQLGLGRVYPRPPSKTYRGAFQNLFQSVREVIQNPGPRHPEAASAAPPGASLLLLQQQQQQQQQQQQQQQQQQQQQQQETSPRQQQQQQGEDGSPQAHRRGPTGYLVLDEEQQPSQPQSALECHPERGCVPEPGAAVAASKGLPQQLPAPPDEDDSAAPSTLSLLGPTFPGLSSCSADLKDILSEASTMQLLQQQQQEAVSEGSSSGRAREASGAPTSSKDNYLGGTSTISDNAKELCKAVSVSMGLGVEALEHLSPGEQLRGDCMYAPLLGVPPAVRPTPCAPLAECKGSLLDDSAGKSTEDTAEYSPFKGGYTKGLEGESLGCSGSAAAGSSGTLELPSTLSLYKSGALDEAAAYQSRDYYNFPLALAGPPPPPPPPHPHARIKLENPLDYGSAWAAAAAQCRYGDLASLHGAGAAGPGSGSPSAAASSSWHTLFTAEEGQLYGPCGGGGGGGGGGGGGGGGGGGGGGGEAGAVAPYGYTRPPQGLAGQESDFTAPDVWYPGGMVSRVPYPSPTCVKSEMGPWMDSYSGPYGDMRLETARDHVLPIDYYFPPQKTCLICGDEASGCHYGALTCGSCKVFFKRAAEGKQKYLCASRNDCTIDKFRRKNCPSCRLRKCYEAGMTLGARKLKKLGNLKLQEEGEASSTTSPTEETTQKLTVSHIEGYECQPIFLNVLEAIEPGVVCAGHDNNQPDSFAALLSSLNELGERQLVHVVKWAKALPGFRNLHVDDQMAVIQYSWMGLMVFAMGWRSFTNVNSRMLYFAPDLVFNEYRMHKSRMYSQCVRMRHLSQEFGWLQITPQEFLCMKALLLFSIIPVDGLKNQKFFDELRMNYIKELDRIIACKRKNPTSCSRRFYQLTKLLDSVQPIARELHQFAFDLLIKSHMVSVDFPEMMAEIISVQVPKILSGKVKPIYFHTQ
Assay: AR (ARE) luciferase reporter assay, LNCaP cells (no ligand or DHT)
Format: cell-based
Settings: read-out: IC50 for ARE-luciferase reporter
measurement.label: IC50

Qu. Hello, I am looking for reported IC50 with androgen receptor (Homo sapiens, UniProt P10275, T878A) for `COc1ccc(C[C@H]2C(=O)N[C@@H](C)C(=O)N(C)[C@H]3Cc4ccc(cc4)Oc4cc(ccc4O)C[C@@H](C(=O)N[C@H](C)C(=O)N[C@@H](CCC(=O)O)C(=O)N2C)N(C)C3=O)cc1` . Could you help?
Ans. > 250 nM

---

molecular target: androgen receptor (Homo sapiens, UniProt P10275, T878A); construct: LNCaP cells that only express AR and respond solely to DHT; endogenous in cells; host or cells: LNCaP; LNCaP-GR; assay: cell-based; conditions: read-out: IC50 for ARE-luciferase reporter
measurement.label: IC50

Qu. Can you share its IC50? I mean this compound: `COc1ccc(C[C@H]2C(=O)N[C@@H](C)C(=O)N(C)[C@H]3Cc4ccc(cc4)Oc4cc(ccc4O)C[C@@H](C(=O)N[C@H](C)C(=O)N[C@@H](CCC(=O)O)C(=O)N2C)N(C)C3=O)cc1`
Ans. > 250 nM

Value source: paper PMC10582333
